- System: 5TGM1 cells
- Assay protocol: Bortezomib treatment of bortezomib-resistant and wild-type 5TGM1 cells
- Format: cell-based
- Settings: 5TGM1, wild-type 5TGM1 cells (5TGM1-WT)
Experimental endpoint: IC50 (nM)
Response body: numeric value in nM, unit text excluded.

Record summary for `CC(C)C[C@H](NC(=O)[C@H](Cc1ccccc1)NC(=O)c1cnccn1)B(O)O` : reported IC50 = 5.26
